Cited source for all entries: patent US20240190889A1

pKi values, listed per item
# test_target: human GABAA α2β2γ1 receptor (Homo sapiens (Human), UniProt P47869+Q8N1C3)
# procedure_summary: Radioligand binding assay, competition for [3H]RO7239181, γ1-containing GABAA subtypes
When answering, recall that pKi equals minus log10 of the concentration in mol/L, and write that number alone.

Observe how each entry below is paired with its result.
compound=Fc1cccc(F)c1C1=NCc2nnc(-c3cccnn3)n2-c2sc3c(c21)C[C@@H](C(F)F)C3 readout_label=pKi result_value=8.52
compound=Cc1nnc2n1-c1sc3c(c1C(c1c(F)cccc1F)=N[C@H]2C)C[C@@H](C(F)F)C3 readout_label=pKi result_value=8.47
compound=Fc1cccc(F)c1C1=NCc2nnc(C3CC3)n2-c2sc3c(c21)C[C@@H](C(F)F)C3 readout_label=pKi result_value=8.19

Entry "C[C@@H]1N=C(c2c(F)cccc2F)c2c(sc3c2C[C@@H](C(F)F)C3)-n2nc(C(=O)N3CCS(=O)(=O)CC3)nc21" ; pKi = 8.27

Entry "C[C@@H]1N=C(c2c(F)cccc2Cl)c2c(sc3c2C[C@@H](C(F)F)C3)-n2c(-c3cccnn3)nnc21" ; pKi = 7.87

Entry "Cc1nnc2n1-c1sc3c(c1C(c1c(F)cccc1F)=N[C@H]2C)C[C@@H](C)C3" ; pKi = 8.20

Entry "Cc1nnc2n1-c1sc3c(c1C(c1c(F)cccc1F)=NC2)C[C@@H](C(F)F)C3" ; pKi = 8.54

Entry Cc1nnc2n1-c1sc3c(c1C(c1c(F)cccc1F)=N[C@H]2C)CCC3 [RE-C, reference compound] ; pKi = 7.69

Entry "C[C@@H]1N=C(c2c(F)cccc2F)c2c(sc3c2C[C@@H](C(F)F)C3)-n2c(C3CC3)nnc21" ; pKi = 8.34

Entry "Cc1nnc2n1-c1sc3c(c1C(c1c(F)cccc1Cl)=N[C@H]2C)C[C@@H](C(F)F)C3" ; pKi = 8.44

Entry CCOC(=O)C1Cc2sc3c(c2C1)C(c1ccccc1Cl)=NCc1nnc(C)n1-3 (stereo not drawn) [RE-B, reference compound] ; pKi = 6.13

Entry "C[C@@H]1N=C(c2c(F)cccc2F)c2c(sc3c2C[C@H](C(F)F)C3)-n2c(CO)cnc21" ; pKi = 7.99

----------
# test_target: human GABAA α1β3γ2 receptor (Homo sapiens (Human), UniProt P14867+P18507)
# procedure_summary: Radioligand binding assay, competition for [3H]Flumazenil, γ2-containing GABAA subtypes
# test_context: Log[Ki α1β3γ2 (nM)/Ki α2β2γ1 (nM)]
LogSel values, listed per item
Number only, no unit.

Observe how each entry below is paired with its result.
compound="Cc1nnc2n1-c1sc3c(c1C(c1c(F)cccc1F)=NC2)C[C@@H](C(F)F)C3 [Example 3]" test_target="human GABAA α1β3γ2 receptor (Homo sapiens (Human), UniProt P14867+P18507)" readout_label=LogSel result_value=1.95
compound="Fc1cccc(F)c1C1=NCc2nnc(C3CC3)n2-c2sc3c(c21)C[C@@H](C(F)F)C3 [Example 7]" test_target="human GABAA α1β3γ2 receptor (Homo sapiens (Human), UniProt P14867+P18507)" readout_label=LogSel result_value=1.67
compound="Fc1cccc(F)c1C1=NCc2nnc(-c3cccnn3)n2-c2sc3c(c21)C[C@@H](C(F)F)C3 [Example 10]" test_target="human GABAA α1β3γ2 receptor (Homo sapiens (Human), UniProt P14867+P18507)" readout_label=LogSel result_value=3.04

Entry C[C@@H]1N=C(c2c(F)cccc2F)c2c(sc3c2C[C@H](C(F)F)C3)-n2c(CO)cnc21 [Example 22] ; LogSel = 1.75
